- target.desc: T1, human IL-2Rγ endogenously expressed on NK-92 and Jurkat cells (human, UniProt P31785 23-369)
- T1 construct: whole, on cells; on cells it stands with the other receptor subunits of the cell line; also called IL-2Rg; CD132
- T1 sequence (looked up): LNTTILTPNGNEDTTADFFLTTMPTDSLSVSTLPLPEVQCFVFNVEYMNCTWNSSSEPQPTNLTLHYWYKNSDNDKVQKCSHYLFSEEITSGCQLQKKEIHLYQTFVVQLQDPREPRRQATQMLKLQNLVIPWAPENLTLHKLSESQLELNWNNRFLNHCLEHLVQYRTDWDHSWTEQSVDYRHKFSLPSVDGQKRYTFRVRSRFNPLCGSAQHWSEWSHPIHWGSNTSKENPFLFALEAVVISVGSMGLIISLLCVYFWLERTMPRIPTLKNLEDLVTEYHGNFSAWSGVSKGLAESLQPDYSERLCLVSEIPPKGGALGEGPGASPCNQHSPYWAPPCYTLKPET
- assay.explanation: flow cytometry, 10 ug/ml antibody, Jurkat cells (endogenous human IL-2Rg)
measurement.label: Binding Ratio (Sample over unstained MFIs)
Reply: number alone, nothing else.

Dear colleague, I am looking for the recorded Binding Ratio (Sample over unstained MFIs) of the following binder: H4H12874P (antibody, human IgG4 S228P, kappa, V domains shown, fully human anti-IL2Rg antibody, human IgG4) VH: QVQLVESGGGVVQPGRSLRLSCAASGFNFRNFGMHWVRQAPGKGLEWVAGILYDGSSKYYADSVKDRFTISRDNSKNTLFLQMNSLRAEDTAMYYCAKEEDTAMVPFDSWGPGTLVTVSS VL: DIQLTQSPSFLSASVGDRVTITCWASQGISSYLAWYQQKPGKAPTLLIYAASTLQSGVPSRFSGSGSGTEFTLTISSLQPEDFASYYCQQLKSYPLTFGGGTKVEIKR
6

src = patent US20200247894A1
